# tested-system: T1, β-catenin (UniProt P35222 134-665, limits assumed, biotinylated in the SPR and plate assays)
# T1 sequence (looked up): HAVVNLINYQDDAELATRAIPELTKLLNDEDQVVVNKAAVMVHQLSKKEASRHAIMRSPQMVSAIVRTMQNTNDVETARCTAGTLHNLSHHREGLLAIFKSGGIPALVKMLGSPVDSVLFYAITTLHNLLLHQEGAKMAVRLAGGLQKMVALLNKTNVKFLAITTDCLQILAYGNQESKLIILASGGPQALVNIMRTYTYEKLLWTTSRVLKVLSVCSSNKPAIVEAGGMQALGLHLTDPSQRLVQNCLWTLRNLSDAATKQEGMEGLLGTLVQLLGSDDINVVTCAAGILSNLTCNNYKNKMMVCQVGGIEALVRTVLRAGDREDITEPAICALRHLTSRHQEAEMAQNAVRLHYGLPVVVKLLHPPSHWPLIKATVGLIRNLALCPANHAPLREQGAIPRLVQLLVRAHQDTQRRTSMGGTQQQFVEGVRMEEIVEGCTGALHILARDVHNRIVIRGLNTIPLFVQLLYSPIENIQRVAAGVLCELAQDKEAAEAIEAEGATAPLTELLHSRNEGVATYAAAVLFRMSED
# test-description: cell-based or functional assay
Where no end group is shown, it is not given here. [ ]: non-standard residue; d: D form. αMeW = C[C@](N)(Cc1c[nH]c2ccccc12)C(=O)O; αMeS = C[C@](N)(CO)C(=O)O
endpoint-label: Wnt Reporter EC50

// below: answered binders
>>> df
                                     binder     endpoint_label  experimental_value
0           MSRHWFLISFW-NH2 [SEQ ID NO: 88]  Wnt Reporter EC50             > 30 µM
1      H-MWILI[αMeS]FWG-OH [SEQ ID NO: 136]  Wnt Reporter EC50             > 30 µM
2  WPQSILDEHGQKVWG (not fully specified; Lauroyl-NH-WPQSILDE*H-Chg-QK*VWG-NH2) [SEQ ID NO: 473]  Wnt Reporter EC50            ≤ 7.5 µM
3          H-HMWILISFWG-OH [SEQ ID NO: 123]  Wnt Reporter EC50            ≤ 7.5 µM
4      H-M[αMeW]ILISFWG-OH [SEQ ID NO: 134]  Wnt Reporter EC50             > 30 µM
5           Ac-WILISFWG-OH [SEQ ID NO: 195]  Wnt Reporter EC50            ≤ 7.5 µM

Note: attention shifts to another entry.
Wnt Reporter EC50 recorded for this binder, H-MSRMWFLFSFWG-OH [SEQ ID NO: 63] , is ≤ 7.5 µM
